Hello, the source for this data is patent US8895585B2, in case you need it.

Tested on: THP-1 cells
Assay: TNFα generation assay
Format: cell-based, human
Conditions: Homo sapiens, THP-1, THP-1 cells; Table 22; read-out: IC50 in TNFα generation assay
Method: THP-1 cells (2×10^5 cells/ml), which were human monocytoid cells, were cultured in the presence of 10 ng/ml IFN-γ (Roche) for 2 days, so that the cells were induced to differentiate into macrophage-like cells. […] Thereafter, the cultured solution was recovered, and the amount of TNFα secreted into the culture solution was then measured by the ELISA method (Roche/R & D Systems) or the AlphaLISA method (PerkinElmer).
Recorded Metric: IC50

Compound	Recorded Metric	Value
CC[C@@H](Nc1nc(Nc2ccnc(-c3ccccc3F)c2)c(C(N)=O)cc1F)[C@H](C)N	IC50	< 65 nM
NC(=O)c1cc(F)c(N[C@@H]2CCCC[C@@H]2N)nc1Nc1cnc2c(ccn2CCN2CCOCC2)c1	IC50	130 to 200 nM
NC(=O)c1cc(F)c(NC2CCCCC2N)nc1Nc1ccc2c(cnn2CCF)c1 (stereo not shown)	IC50	< 65 nM
CCOc1ncc(Nc2nc(N[C@@H]3CCCC[C@@H]3N)c(F)cc2C(N)=O)cc1C	IC50	65 to 130 nM
CCn1ncc2cc(Nc3nc(N[C@H](CC(C)C)[C@H](C)N)c(F)cc3C(N)=O)ccc21	IC50	< 65 nM

Provide IC50, tested on THP-1 cells, for C[C@H](N)[C@@H](C)Nc1nc(Nc2cncc(-c3ccccc3)c2)c(C(N)=O)cc1F (racemic) .
< 65 nM

Give reported IC50 for "CCC[C@@H](Nc1nc(Nc2cncc(-n3cccn3)c2)c(C(N)=O)cc1F)[C@H](C)N" (THP-1 cells)
65 to 130 nM

* * *

Reported IC50 values are given for each entry in this list.
Target: glutathione S-transferase (GST)-fused full-length human Syk protein (Homo sapiens, UniProt P43405)
Construct: (GST)-fused full-length human Syk protein; GST (glutathione S-transferase); purchased Carna Biosciences
Assay: Syk enzyme assay
Type: biochemical
Conditions: Syk enzyme assay, Test Example 1; read-out: IC50 of Syk-inhibitory activity

Compound	IC50
COc1ccc(-c2cc(Nc3nc(NC4CCCCC4N)c(F)cc3C(N)=O)ccn2)c(F)c1 (stereo not shown) [Example 002-140]	< 0.01 µM
COc1cc(Nc2nc(N[C@H](c3ccc(F)cc3)[C@H](C)N)c(F)cc2C(N)=O)ccn1 [Example 006-556]	< 0.01 µM
COc1ccc(-c2cc(Nc3nc(NC4CCCCC4N)c(F)cc3C(N)=O)ccn2)cc1 (stereo not shown) [Example 002-184]	< 0.01 µM
COCCOc1ccc2cc(Nc3nc(N[C@H](C)[C@H](C)N)c(F)cc3C(N)=O)cnc2c1 (racemic) [Example 006-183]	< 0.01 µM
NC(=O)c1cc(F)c(NC2CCCCC2N)nc1Nc1cc(-c2ccccc2)ncc1F (stereo not shown) [Example 002-168]	0.01 to 0.05 µM

Please examine the following record next.
Supply measured IC50 of NC(=O)c1cc(F)c(N[C@@H]2CCCC[C@@H]2N)nc1Nc1ccnc2c1ccn2-c1ccccc1 [Example 004-038] in your reply.
< 0.01 µM

* * *

IC50 values by entry
Biological target: glutathione S-transferase (GST)-fused full-length human Syk protein (Homo sapiens, UniProt P43405)
Construct: (GST)-fused full-length human Syk protein; GST (glutathione S-transferase); purchased Carna Biosciences
Assay: Syk enzyme assay
Assay type: biochemical
Settings: Syk enzyme assay, Test Example 1; read-out: IC50 of Syk-inhibitory activity

Molecule	IC50
CC[C@@H](Nc1nc(Nc2ccc3c(c2)c(C(C)C)nn3C)c(C(N)=O)cc1F)[C@H](C)N [Example 006-543]	< 0.01 µM
COCCn1ncc2cc(Nc3nc(N[C@@H]4CCCC[C@@H]4N)c(F)cc3C(N)=O)ccc21 (relative stereo) [Example 004-091]	< 0.01 µM

Please report IC50 for the following molecule: CC[C@@H](Nc1nc(Nc2cncc3ccccc23)c(C(N)=O)cc1F)[C@H](C)N [Example 006-262]
< 0.01 µM

Read the entry COCc1cncc(Nc2nc(N[C@@H]3CCCC[C@@H]3N)c(F)cc2C(N)=O)c1 (relative stereo) [Example 004-188] and write its reported IC50.
0.01 to 0.05 µM

Give the reported value of IC50 for this record: CCCOc1cc(Nc2nc(N[C@H](C)[C@H](C)N)c(F)cc2C(N)=O)ccn1 (racemic) [Example 006-187]
< 0.01 µM

Give the reported IC50 for this molecule. CC(C)C[C@@H](Nc1nc(Nc2ccc3c(cnn3C)c2)c(C(N)=O)cc1F)[C@H](C)N [Example 006-383]
< 0.01 µM

Consider the molecule CC[C@H](N)[C@@H](CC)Nc1nc(Nc2ccc3c(cnn3CC)c2)c(C(N)=O)cc1F [Example 006-365] . State its measured IC50.
< 0.01 µM
